Tested on: Pseudomonas aeruginosa MB9798 vs MB9799
measurement.context: ratio MITC95 PA_9798/MITC95 PA_9799
Entries annotated with measured Efflux ratio

molecule	Efflux ratio
Nc1nc2c(-c3ccc(S(=O)(=O)N[C@@H]4CN[C@H](CO)C4)c(S(N)(=O)=O)c3-c3nnn[nH]3)cccc2s1	1.00
NC[C@H](O)CNS(=O)(=O)c1ccc(-c2ccc(N)nc2)c(-c2nn[nH]n2)c1S(N)(=O)=O	1.00
NS(=O)(=O)c1c(S(=O)(=O)N[C@@H]2CCNC2)ccc(-c2cccn3ccnc23)c1-c1nn[nH]n1	1.00
NC[C@H](O)CNS(=O)(=O)c1ccc(-c2cccc3[nH]cnc23)c(-c2nn[nH]n2)c1S(N)(=O)=O	1.00
CN(CCc1ccncc1)S(=O)(=O)c1ccc(-c2cccc3sc(N)nc23)c(-c2nnn[nH]2)c1S(N)(=O)=O.O=C(O)C(F)(F)F	32.00
Nc1nc2c(-c3ccc(S(=O)(=O)N4CC5CC4CS5(=O)=O)c(S(N)(=O)=O)c3-c3nnn[nH]3)cccc2s1 (centres unmarked)	16.00
Nc1nc2c(-c3ccc(S(=O)(=O)N[C@@H]4CNC[C@@H]4O)c(S(N)(=O)=O)c3-c3nnn[nH]3)cccc2[nH]1	1.00
NCc1nc2c(-c3ccc(S(=O)(=O)NC[C@@H](O)CN)c(S(N)(=O)=O)c3-c3nn[nH]n3)cccc2s1	1.00
Nc1nc2c(-c3ccc(S(=O)(=O)N4CCNCC4)c(S(N)(=O)=O)c3-c3nn[nH]n3)cccc2s1	1.33
NCCNS(=O)(=O)c1ccc(-c2cccc(NC[C@H](O)CN)c2)c(-c2nn[nH]n2)c1S(N)(=O)=O	2.00
CN(C1CNC1)S(=O)(=O)c1ccc(-c2cccc3[nH]c(N)nc23)c(-c2nn[nH]n2)c1S(N)(=O)=O	2.00
NCCNS(=O)(=O)c1ccc(-c2cccc(NC[C@H](N)CO)c2)c(-c2nn[nH]n2)c1S(N)(=O)=O	1.00
NCCn1nc2cccc(-c3ccc(S(=O)(=O)N[C@@H]4CCNC4)c(S(N)(=O)=O)c3-c3nn[nH]n3)c2n1	1.00
Nc1nc2c(-c3ccc(S(=O)(=O)NC[C@@H](N)CO)c(S(N)(=O)=O)c3-c3nn[nH]n3)cccc2[nH]1	0.50

----------
measurement.target: IMP-1 (Serratia marcescens, UniProt P52699)
Sequence (P52699 whole entry, looked up, species assumed): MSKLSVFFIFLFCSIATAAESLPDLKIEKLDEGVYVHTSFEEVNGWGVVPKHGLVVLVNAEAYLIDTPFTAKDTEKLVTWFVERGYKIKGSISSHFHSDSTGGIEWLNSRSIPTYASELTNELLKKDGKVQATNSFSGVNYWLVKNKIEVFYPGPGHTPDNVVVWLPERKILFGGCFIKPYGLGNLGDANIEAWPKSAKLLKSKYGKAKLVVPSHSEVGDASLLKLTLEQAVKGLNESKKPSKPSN
assay.overview: biochemical
Type: biochemical
measurement.context: fluorescence assay, CCF2-FA substrate, 2 pM enzyme, 2 hours at 25° C.; read-out: IMP-1 IC50
pIC50: −log10 of the molar value.
Entries annotated with measured pIC50
test.readout: pIC50

molecule	recorded.result
NC(=O)[C@H](N)CNS(=O)(=O)c1ccc(-c2cccc3[nH]c(N)nc23)c(-c2nn[nH]n2)c1S(N)(=O)=O [Example 188]	9.21
NCC(CN)NS(=O)(=O)c1ccc(-c2cccc3[nH]c(N)nc23)c(-c2nn[nH]n2)c1S(N)(=O)=O [Example 429]	9.31
NCCNS(=O)(=O)c1ccc(-c2cccc(C(=O)N[C@@H]3CNC[C@H]3O)c2)c(-c2nn[nH]n2)c1S(N)(=O)=O [Example 344]	8.37
NCc1nc2c(-c3ccc(S(=O)(=O)NC[C@H](O)CN)c(S(N)(=O)=O)c3-c3nn[nH]n3)cccc2s1 [Example 300]	9.50

----------
measurement.target: VIM-1 (Pseudomonas aeruginosa (strain ATCC 15692 / DSM 22644 / CIP 104116 / JCM 14847 / LMG 12228 / 1C / PRS 101 / PAO1), UniProt A0A0F7KYQ8)
assay.overview: biochemical
measurement.context: VIM-1 IC50, fluorescence assay, CCF2-FA substrate, 30 pM enzyme, 2 hours at 25° C.
pIC50: −log10 of the molar value.
Entries annotated with measured pIC50

compound	pIC50
CN(CCN)S(=O)(=O)c1ccc(-c2cccc3[nH]c(N)nc23)c(-c2nn[nH]n2)c1S(N)(=O)=O	7.56
NCCNS(=O)(=O)c1ccc(-c2cccc3ncccc23)c(-c2nn[nH]n2)c1S(N)(=O)=O	9.87
Nc1nc2c(-c3ccc(S(=O)(=O)N4CCOCC4)c(S(N)(=O)=O)c3-c3nnn[nH]3)cccc2s1	8.51
NC[C@@H](N)CNS(=O)(=O)c1ccc(-c2cccc3ccc(N)nc23)c(-c2nn[nH]n2)c1S(N)(=O)=O	9.56
Nc1nc2c(-c3ccc(S(=O)(=O)NCC4CCN4)c(S(N)(=O)=O)c3-c3nn[nH]n3)cccc2[nH]1 (centres unmarked)	9.16
Cn1nnc2ccc(-c3ccc(S(=O)(=O)N[C@@H]4CCNC4)c(S(N)(=O)=O)c3-c3nnn[nH]3)cc21	9.85
Nc1nc2c(-c3ccc(S(=O)(=O)NC[C@H]4CCNC4)c(S(N)(=O)=O)c3-c3nnn[nH]3)cccc2s1	9.90
Nc1nc2c(-c3ccc(S(=O)(=O)N4CC5CC4CS5(=O)=O)c(S(N)(=O)=O)c3-c3nnn[nH]3)cccc2s1 (centres unmarked)	8.58
NC[C@H](O)CNS(=O)(=O)c1ccc(-c2cnc(N)c(F)c2)c(-c2nn[nH]n2)c1S(N)(=O)=O	10.06
Nc1nc2c(-c3ccc(S(=O)(=O)NC[C@@H]4CCCN4)c(S(N)(=O)=O)c3-c3nn[nH]n3)cccc2[nH]1	9.53
N[C@H]1C=C(c2ccc(S(=O)(=O)N[C@@H]3CCNC3)c(S(N)(=O)=O)c2-c2nn[nH]n2)CCC1	8.68
NCc1nc2c(-c3ccc(S(=O)(=O)N[C@@H](CN)CO)c(S(N)(=O)=O)c3-c3nn[nH]n3)cccc2[nH]1	9.87
NCC(CN)NS(=O)(=O)c1ccc(-c2cccc(-c3cnc(N)[nH]3)n2)c(-c2nnn[nH]2)c1S(N)(=O)=O	8.41
CN1CC[C@H](CNS(=O)(=O)c2ccc(-c3cccc4sc(N)nc34)c(-c3nnn[nH]3)c2S(N)(=O)=O)C1	9.88

----------
measurement.target: IMP-1 (Serratia marcescens, UniProt P52699)
assay.overview: biochemical
Format: biochemical
measurement.context: fluorescence assay, CCF2-FA substrate, 2 pM enzyme, 2 hours at 25° C.; read-out: IMP-1 IC50
pIC50: −log10 of the molar value.
Entry flag: MET if pIC50 reaches 9; NOT MET if it does not.

molecule	discrete.label
Nc1ccc(-c2ccc(S(=O)(=O)NCC3(O)CCNCC3)c(S(N)(=O)=O)c2-c2nn[nH]n2)cn1	MET
NCCNS(=O)(=O)c1ccc(-c2cccc3[nH]cnc23)c(-c2nn[nH]n2)c1S(N)(=O)=O	MET
NC(=O)c1ccc(-c2ccc(S(=O)(=O)N[C@@H]3CCNC3)c(S(N)(=O)=O)c2-c2nnn[nH]2)cc1	MET
Nc1nc2c(-c3ccc(S(N)(=O)=O)c(S(N)(=O)=O)c3-c3nn[nH]n3)cccc2s1	MET
NCc1nc2c(-c3ccc(S(=O)(=O)NC[C@@H](O)CN)c(S(N)(=O)=O)c3-c3nn[nH]n3)cccc2[nH]1	NOT MET
Nc1nc2c(-c3ccc(S(=O)(=O)N[C@@H]4CN[C@@H](CO)C4)c(S(N)(=O)=O)c3-c3nnn[nH]3)cccc2s1	MET
C[N+]1(CCN)CC[C@@H](NS(=O)(=O)c2ccc(-c3cccc4[nH]c(N)nc34)c(-c3nn[nH]n3)c2S(N)(=O)=O)C1.O=CO[O-] (some centres unmarked)	MET
NCc1nc2cc(-c3ccc(S(=O)(=O)N[C@@H](CN)CO)c(S(N)(=O)=O)c3-c3nn[nH]n3)ccc2[nH]1	MET
CN(C)C(=O)c1ccccc1-c1ccc(S(=O)(=O)N[C@@H]2CCNC2)c(S(N)(=O)=O)c1-c1nnn[nH]1	NOT MET
Nc1nc2c(-c3ccc(S(=O)(=O)NCC4COCCN4)c(S(N)(=O)=O)c3-c3nnn[nH]3)cccc2s1.O=C(O)C(F)(F)F (centres unmarked) [Example 96, 2,2,2-trifluoroacetate]	MET
Nc1ncccc1-c1ccc(S(=O)(=O)NC[C@H]2CNCCN2)c(S(N)(=O)=O)c1-c1nn[nH]n1	NOT MET

----------
measurement.target: VIM-1 (Pseudomonas aeruginosa (strain ATCC 15692 / DSM 22644 / CIP 104116 / JCM 14847 / LMG 12228 / 1C / PRS 101 / PAO1))
assay.overview: biochemical
measurement.context: fluorescence assay, CCF2-FA substrate, 30 pM enzyme, 2 hours at 25° C.; read-out: VIM-1 IC50
test.readout: IC50 (nM)

Nc1nc(-c2cccc(-c3ccc(S(=O)(=O)N[C@@H]4CCNC4)c(S(N)(=O)=O)c3-c3nn[nH]n3)c2)n[nH]1 0.115
NC(=O)c1ccc(-c2ccc(S(=O)(=O)N[C@@H]3CCNC3)c(S(N)(=O)=O)c2-c2nnn[nH]2)cc1 0.157
N[C@H](CO)CNS(=O)(=O)c1ccc(-c2cccc3[nH]cnc23)c(-c2nn[nH]n2)c1S(N)(=O)=O 0.184
NCCNCc1sc(N)nc1-c1cccc(-c2ccc(S(=O)(=O)N[C@@H]3CCNC3)c(S(N)(=O)=O)c2-c2nnn[nH]2)c1 0.404
C[C@H](CN)NS(=O)(=O)c1ccc(-c2cccnc2N)c(-c2nn[nH]n2)c1S(N)(=O)=O 0.154
Nc1nc2c(-c3ccc(S(=O)(=O)NC[C@@H]4CNCCN4)c(S(N)(=O)=O)c3-c3nn[nH]n3)cccc2[nH]1 0.169
NCCNS(=O)(=O)c1ccc(-c2cccc3sc(CN)nc23)c(-c2nn[nH]n2)c1S(N)(=O)=O 0.129
